System: P. falciparum stage V gametocytes
Design: BacTiter-Glo ATP luminescence viability of purified stage V gametocytes in 384-well plates, per cent inhibition versus DMSO
cond: 48 h, 5 µM; inhibitor
The campaign covered roughly 13,000 compounds. About 3,200 (25%) showed an effect of 50% or more. The list shows a part of the results.
For each record, write down the corresponding % Inhibition.
Write it as a number; the unit % goes unstated.

Req: Consider the molecule `Cc1onc(-c2c(Cl)cccc2Cl)c1C(=O)NC1=NC(C)(C)ON1c1ccccc1` tested on P. falciparum stage V gametocytes; state its % Inhibition.
Resp: -4.951

Req: Consider the molecule C=CCNC(=O)C(C)c1ccc2cc(OC)ccc2c1 (centres unmarked) tested on P. falciparum stage V gametocytes; state its % Inhibition.
Resp: 24.74

Req: Consider the molecule `CN1CCN(CC(=O)Nc2ccc(-c3cccc(-c4nc5ccc(C(F)(F)F)cc5[nH]4)c3)cc2)CC1` tested on P. falciparum stage V gametocytes; state its % Inhibition.
Resp: 72.32

Req: Consider the molecule `O=C(NCCc1ccccc1)N(Cc1ccccc1-c1ccc(CNC2CCCC2)cc1)C1CCN(Cc2ccccc2)CC1` tested on P. falciparum stage V gametocytes; state its % Inhibition.
Resp: 98.8

Req: Consider the molecule Cc1cc(N(C)C)nc(Nc2ccc(NC(=O)C(C)Oc3ccccc3)cc2)n1 (centres unmarked) tested on P. falciparum stage V gametocytes; state its % Inhibition.
Resp: 7.49

Req: Consider the molecule `Cn1c(-c2ccccc2)cc2c3c(=O)cc(C(F)(F)F)[nH]c3ccc21` tested on P. falciparum stage V gametocytes; state its % Inhibition.
Resp: 31.04

Req: Consider the molecule `Cc1cccc2[nH]c(-c3cccc(-c4ccc(CN5CCN(CCO)CC5)cc4)c3)nc12` tested on P. falciparum stage V gametocytes; state its % Inhibition.
Resp: 5.684

Req: Consider the molecule `CCNS(=O)(=O)c1ccc(Oc2ccc([N+](=O)[O-])cc2)cc1` tested on P. falciparum stage V gametocytes; state its % Inhibition.
Resp: -0.3916

Req: Consider the molecule `CCOc1ccccc1C(=O)N1CCc2cc3nccc(N4CCN5CCC[C@H]5C4)c3cc21` tested on P. falciparum stage V gametocytes; state its % Inhibition.
Resp: 21.16

Req: Consider the molecule Cc1cc(N2CCCC2)nc(Nc2ccc(NC(=O)C(C)Oc3ccccc3)cc2)n1 (centres unmarked) tested on P. falciparum stage V gametocytes; state its % Inhibition.
Resp: 18.82

Req: Consider the molecule `O=C(NCCc1ccccc1)N(Cc1ccccc1-c1cccc(CNC2CCCC2)c1)C1CCN(Cc2ccccc2)CC1` tested on P. falciparum stage V gametocytes; state its % Inhibition.
Resp: 64.34

Req: Consider the molecule `CN1CCN(c2ccc(-c3cc(-c4cc(F)c(F)c(F)c4)cnc3N)cc2)CC1` tested on P. falciparum stage V gametocytes; state its % Inhibition.
Resp: -8.308

Req: Consider the molecule `CN1CCC(C(=O)Nc2ccc(-c3cccc(-c4nc5ccc(C(F)(F)F)cc5[nH]4)c3)cc2)CC1` tested on P. falciparum stage V gametocytes; state its % Inhibition.
Resp: -24.87

Req: Consider the molecule `Cc1ccc(NC(=O)c2cc([N+](=O)[O-])ccc2NCc2cccnc2)cc1Cl` tested on P. falciparum stage V gametocytes; state its % Inhibition.
Resp: 7.674

Req: Consider the molecule `Cc1ccc(NC(=O)c2ccc(CN3CCCN(CC4CCCCC4)CC3)cc2)cc1` tested on P. falciparum stage V gametocytes; state its % Inhibition.
Resp: -64.33

Req: Consider the molecule `Cc1ccc(Nc2nnc(SCC(=O)Nc3ccc(CN4CCCC4)cc3)s2)cc1` tested on P. falciparum stage V gametocytes; state its % Inhibition.
Resp: 65.4

Req: Consider the molecule `NCCNc1ccc([N+](=O)[O-])cc1C(=O)Nc1cccc(Cl)c1` tested on P. falciparum stage V gametocytes; state its % Inhibition.
Resp: 33.32

###

For each record, write down the corresponding % Inhibition.
Tested on: P. falciparum stage V gametocytes
Parameters: BacTiter-Glo ATP luminescence viability of purified stage V gametocytes in 384-well plates, per cent inhibition versus DMSO
cond: 48 h, 5 µM; inhibitor
In all, about 13,000 compounds went through this assay and about 3,200 (25%) showed an effect of 50% or more. The list shows a part of the results.
Write it as a number; the unit % goes unstated.

Req: Report % Inhibition, nothing else, for this compound: Cc1ccccc1C1CCN(C2CCC(NC(=O)/C=C/c3ccc(C#N)cc3)CC2)CC1 (centres unmarked)
Resp: -65.01

Req: Report % Inhibition, nothing else, for this compound: `COc1ccc(-c2ccc(NC(=O)c3ccc(Cl)cc3)cc2)cc1CN1CCNCC1`
Resp: 93.69

Req: Report % Inhibition, nothing else, for this compound: Cc1cccc(C)c1N1CCN(C2CCC(NC(=O)c3cc4ccccc4[nH]3)CC2)CC1 (centres unmarked)
Resp: -33.12

Req: Report % Inhibition, nothing else, for this compound: `COc1ccc(-c2cccc(NC(=O)c3cccc(Cl)c3)c2)cc1CN1CCCC1`
Resp: 79.62

Req: Report % Inhibition, nothing else, for this compound: FC(F)(F)c1ccc2[nH]c(-c3cccc(-c4ccc(CNCC5CCCO5)cc4)c3)nc2c1.O=C(O)C(F)(F)F (centres unmarked)
Resp: -16.51

Req: Report % Inhibition, nothing else, for this compound: `CC(=O)Nc1nc(C(=O)Nc2ccc(-c3cccc(-c4nc5ccccc5[nH]4)c3)cc2)cs1`
Resp: 25.25

Req: Report % Inhibition, nothing else, for this compound: `Nc1ncc(-c2cn[nH]c2)cc1-c1nc2ccc(Cl)cc2[nH]1`
Resp: -7.229

Req: Report % Inhibition, nothing else, for this compound: CC(Cc1ccc(NC(=O)c2ccc(CNCc3ccccc3)cc2)cc1)N(CCc1cccc(Cl)c1)C(=O)OC(C)(C)C (centres unmarked)
Resp: -24.54

###

System: P. falciparum stage V gametocytes
Set-up: BacTiter-Glo ATP luminescence viability of purified stage V gametocytes in 384-well plates, per cent inhibition versus DMSO
cond: 48 h, 5 µM; inhibitor
Hit rate of the full screen: of about 13,000 compounds, about 3,200 (25%) showed an effect of 50% or more. This is one part of the list.
valueKind: % Inhibition
In your response, the unit should come after the numeric value.

Req: Report % Inhibition, nothing else, for this compound: `CO/C(=C\C=C\c1cc2cc(Cl)c(Cl)cc2[nH]1)C(=O)NC1CCN(CCCc2ccccc2)CC1`
Resp: 70.65%

Req: Report % Inhibition, nothing else, for this compound: `CCOC(=O)c1ccc(OCCCCCCOc2ccc(Br)cc2)cc1`
Resp: 4.056%

Req: Report % Inhibition, nothing else, for this compound: `O=C(NCc1ccc(Cl)c(Cl)c1)c1ccc(-c2nc3cc(F)c(F)cc3[nH]2)cc1`
Resp: 62.28%

Req: Report % Inhibition, nothing else, for this compound: `CO/C(=C\C=C\c1cc2cc(Cl)c(Cl)cc2[nH]1)C(=O)NC1CCN(CCNc2ccccc2)CC1`
Resp: -22.32%

Req: Report % Inhibition, nothing else, for this compound: `Cc1cc2nc(-c3ccc(C(=O)NCc4ccc(Cl)c(Cl)c4)cc3)[nH]c2cc1C`
Resp: 14.5%

Req: Report % Inhibition, nothing else, for this compound: `O=C(Nc1ccc2c(c1)CCNCC2)Nc1ccc2ccccc2c1`
Resp: -8.361%

Req: Report % Inhibition, nothing else, for this compound: `CC(C)(C)c1ccc(CNC(=O)/C=C/c2ccc(-c3nc4ccc(C(C)(C)C)cc4[nH]3)cc2)cc1`
Resp: 15.07%

Req: Report % Inhibition, nothing else, for this compound: `Cc1ccc2nc(-c3ccc(C=CC(=O)NCc4ccc(Cl)c(Cl)c4)cc3)[nH]c2c1`
Resp: -29.51%

Req: Report % Inhibition, nothing else, for this compound: `CO/C(=C\C=C/c1cc2cc(Cl)c(Cl)cc2[nH]1)C(=O)NC1CC(C)(C)N(C)C(C)(C)C1`
Resp: -40.37%

Req: Report % Inhibition, nothing else, for this compound: Cc1ccc(C2CC(=O)CC(c3ccccn3)C2[N+](=O)[O-])cc1 (centres unmarked)
Resp: 6.685%

Req: Report % Inhibition, nothing else, for this compound: `NC(=O)C1CCN(Cc2cccc(-c3cccc(-c4nc5cc(C(F)(F)F)ccc5[nH]4)c3)c2)CC1.O=C(O)C(F)(F)F`
Resp: -65.64%

Req: Report % Inhibition, nothing else, for this compound: `CN1CCN(c2cc(NC(=O)c3ccc(-c4ccc(Cl)cc4)cc3)ccc2Cl)CC1`
Resp: -15.54%

Req: Report % Inhibition, nothing else, for this compound: `CN1CCc2ccc(NC(=O)Nc3ccc(-c4ccccc4)cc3)cc2C1`
Resp: -3.896%

Req: Report % Inhibition, nothing else, for this compound: `CO/C(=C\C=C\c1cc2cc(Cl)c(Cl)cc2[nH]1)C(=O)NC1CCN(CCOc2ccccc2)CC1`
Resp: 27.46%

Req: Report % Inhibition, nothing else, for this compound: `Cc1cccc2[nH]c(-c3cccc(-c4ccc(NC(=O)Cc5ccon5)cc4)c3)nc12`
Resp: -38.48%

Req: Report % Inhibition, nothing else, for this compound: `O=C(Nc1ccc2c(c1)CNCC2)c1ccc(-c2ccc(Cl)cc2)cc1`
Resp: 71.62%

Req: Report % Inhibition, nothing else, for this compound: CCN(CC)CCOc1ccc(C(O)(C#CC(O)(c2ccc(OCCN(CC)CC)cc2)c2ccc([N+](=O)[O-])cc2)c2ccc([N+](=O)[O-])cc2)cc1 (centres unmarked)
Resp: 116.9%

Req: Report % Inhibition, nothing else, for this compound: `CC1(C)N=C(N)N=C(N)N1OCCCOc1ccc([N+](=O)[O-])cc1`
Resp: 2.796%

Req: Report % Inhibition, nothing else, for this compound: `O=C(Nc1ccc(Cl)c(Cl)c1)Nc1ccc2c(c1)CCNCC2`
Resp: 29.44%

Req: Report % Inhibition, nothing else, for this compound: `NOCCCCOc1ccc(Br)cc1`
Resp: 15.82%

Req: Report % Inhibition, nothing else, for this compound: `CCC(=O)OC(CCN(CC)CC)(c1ccccc1)c1ccccc1`
Resp: 15.82%

Req: Report % Inhibition, nothing else, for this compound: `Cc1ccc(NC(=O)c2ccc(Cl)cc2)cc1-c1ccc(C(=O)Nc2ccncc2)cc1`
Resp: -1.939%

Req: Report % Inhibition, nothing else, for this compound: `O=C(NCc1ccc(Cl)c(Cl)c1)c1ccc(-c2nc3ccc(F)cc3[nH]2)cc1`
Resp: -30.61%

Req: Report % Inhibition, nothing else, for this compound: `CCCCCCc1cnc2nc(N)nc(N)c2c1C`
Resp: 8.256%

Req: Report % Inhibition, nothing else, for this compound: CO/C(=C\C=C\c1cc2cc(Cl)c(Cl)cc2[nH]1)C(=O)NC1CC(C)N(C)C(C)C1 (centres unmarked)
Resp: -67.29%

Req: Report % Inhibition, nothing else, for this compound: `Cc1ccc(NC(=O)N2CCCN(CCCCCNC(=O)/C=C/c3ccc(Cl)c(Cl)c3)CC2)cc1`
Resp: -49.55%

Req: Report % Inhibition, nothing else, for this compound: `Cc1cc2nc(-c3ccc(/C=C/C(=O)NCc4ccc(Cl)c(Cl)c4)cc3)[nH]c2cc1C`
Resp: 1.168%

Req: Report % Inhibition, nothing else, for this compound: `CN1CCN(c2ccnc3ccc(NC(=O)Cc4cccc(Cl)c4Cl)cc23)CC1`
Resp: -28.12%

Req: Report % Inhibition, nothing else, for this compound: CO/C(=C\C=C\c1cc2cc(Cl)c(Cl)cc2[nH]1)C(=O)NC1CC2CCCC(C1)N2C (centres unmarked)
Resp: 19.33%

Req: Report % Inhibition, nothing else, for this compound: CCN(CC)CCOc1ccc(C(O)(C#CC(O)(c2ccccc2)c2ccc(OCCN(CC)CC)cc2)c2ccccc2)cc1 (centres unmarked)
Resp: 109.6%

Req: Report % Inhibition, nothing else, for this compound: `COC(=O)c1ccc2nc(-c3ccc(/C=C/C(=O)NCc4ccc(Cl)c(Cl)c4)cc3)[nH]c2c1`
Resp: 71.15%

Req: Report % Inhibition, nothing else, for this compound: Cc1ccccc1C1CCN(C2CCC(NC(=O)/C=C/c3c[nH]c4ccccc34)CC2)CC1 (centres unmarked)
Resp: -47.56%
